For each entry below, report its EC50 value.
- System: Punta Toro virus
- ASSAY NAME: Antiviral activity against Punta Toro virus infected in Vero cells assessed as inhibition of virus-induced cytopathic effect by MTS assay
- Assay type: functional, organism-based
Give bare numbers, in µM.

Cc1cn(CN(CCOC(=O)C(C)(C)C)S(=O)(=O)c2ccccc2[N+](=O)[O-])c(=O)[nH]c1=O
100

Now take the following compound into account.
Returns the measured EC50 for the input compound. Input: CC(C)(C)C(=O)OCCN(Cn1cc(F)c(=O)[nH]c1=O)S(=O)(=O)c1cccc([N+](=O)[O-])c1 100

---

- ASSAY NAME: Cytotoxicity against MDCK cells assessed as alteration in cell morphology by MTS assay
- Type: cell-based, Canis lupus familiaris
- CONDITION NOTES: dog
QUANTITY: MCC (µM)
One number for each entry, in µM.

Solved cases (2 shown):
CC(C)(C)C(=O)OCCN(Cn1cc(F)c(=O)[nH]c1=O)S(=O)(=O)c1ccccc1[N+](=O)[O-]
4
NC(=O)c1ncn([C@@H]2O[C@H](CO)[C@@H](O)[C@H]2O)n1 [RIBAVIRIN]
100

Now take the following molecule into account.
Returns the measured MCC for the input molecule. Input: CC(C)(C)C(=O)OCCN(Cn1cc(F)c(=O)[nH]c1=O)S(=O)(=O)c1ccc([N+](=O)[O-])cc1 20
